// values below are reported koff
# TARGET OR TEST SYSTEM: T1, human soluble urokinase plasminogen activator receptor (hsuPAR) (human, UniProt Q03405 23-303, limits assumed)
# T1 construct: also called human suPAR; rhuPAR-His
# T1 sequence (Q03405 23-303 limits assumed): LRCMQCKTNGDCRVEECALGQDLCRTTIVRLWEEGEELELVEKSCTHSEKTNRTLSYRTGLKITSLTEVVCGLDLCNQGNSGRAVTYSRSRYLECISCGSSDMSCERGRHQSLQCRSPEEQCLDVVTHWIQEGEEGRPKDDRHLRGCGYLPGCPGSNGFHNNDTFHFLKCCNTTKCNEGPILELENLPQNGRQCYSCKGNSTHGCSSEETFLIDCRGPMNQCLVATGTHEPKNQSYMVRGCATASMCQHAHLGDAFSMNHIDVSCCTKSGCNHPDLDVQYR
# PROTOCOL: BLI (Octet) off-rate screen of scFv
Write it as a number; the unit s⁻¹ goes unstated.

Prompt: Entry under review: suPAR_DB01_G09 (scFv, V domains shown, Screened as scFv) VH: QVQLVQSGAEVKKPGASVKVSCKASGHTLNSYYMHWVRQAPGQGLEWMGWIDPENGNTIYAQKFQGRVTMTRDTSTSTVYMELSSLRSEDTAVYYCARGYDVDWFVYWGQGTLVTVSS VL: DIQMTQSPSSLSASVGDRVTITCSARQSVSYMYWYQQKPGKAPKLLIYRTSNLASGVPSRFSGSGSGTDFTLTISSLQPEDFATYYCQQYHSYPPTFGGGTKVEIK . Reported koff?
Response: 0.00433

Prompt: Entry under review: suPAR_DB02_B09 (scFv, V domains shown, Screened as scFv) VH: QVQLVQSGAEVKKPGASVKVSCKASGYTFTGYYVHWVRQAPGQGLEWMGWIDHSNGNTIYDQKFQGRVTMTRDTSTSTVYMELSSLRSEDTAVYYCASGYDVDWFVYWGQGTLVTVSS VL: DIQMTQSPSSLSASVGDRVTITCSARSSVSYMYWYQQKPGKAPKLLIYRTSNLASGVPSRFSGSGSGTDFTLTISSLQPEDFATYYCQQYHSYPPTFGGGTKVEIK . Reported koff?
Response: 0.00422

Prompt: Entry under review: suPAR_DB01_G12 (scFv, V domains shown, Screened as scFv) VH: QVQLVQSGAEVKKPGASVKVSCKASGDTFSNYYMHWVRQAPGQGLEWMGWIDHENGNTIYDQKFQGRVTMTRDTSTSTVYMELSSLRSEDTAVYYCARGYDVDWFVYWGQGTLVTVSS VL: DIQMTQSPSSLSASVGDRVTITCSARSSISYMYWYQQKPGKAPKLLIYRTSNLASGVPSRFSGSGSGTDFTLTISSLQPEDFATYYCQQYHSYPPTFGGGTKVEIK . Reported koff?
Response: 0.00466

Prompt: Entry under review: suPAR_DB02_B04 (scFv, V domains shown, Screened as scFv) VH: QVQLVQSGAEVKKPGASVKVSCKASGYTFTGHYMHWVRQAPGQGLEWMGWIDHENGNTIYDQKFQGRVTMTRDTSTSTVYMELSSLRSEDTAVYYCARGYDVDWFVYWGQGTLVTVSS VL: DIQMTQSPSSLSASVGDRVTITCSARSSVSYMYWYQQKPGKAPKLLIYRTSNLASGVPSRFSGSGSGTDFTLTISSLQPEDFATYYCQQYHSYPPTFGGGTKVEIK . Reported koff?
Response: 0.00477

Just for reference, patent US20250215104A1 is where these values come from.
